Quick reference: self-cleavage of the listed items.
B1: Hairpin Ribozyme (parent)
chain: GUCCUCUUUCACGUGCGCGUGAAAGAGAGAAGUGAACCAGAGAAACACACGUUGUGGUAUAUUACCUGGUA

variants of: B1; experiment: self-cleavage, relative activity (ratio to wild type); higher = more cleavage; co-transcriptional
// return just the number, without any unit appended

> print(dat)
   mutation.list  quantitative.readout
1       U5C C37U                 0.348
2      A11C C12A                 0.636
3      G17U U55A                 0.142

Turning to the following variant.
The recorded self-cleavage for entry U2A C65A equals 0.222
